Numbers sourced from ChEMBL document CHEMBL4251572.

System: Cyberlindnera jadinii
METHOD SUMMARY: Antifungal against Candida utilis after 24 hrs by two fold serial dilution method
Format: functional
MEASUREMENT CONDITIONS: Williopsis jadinii
PROPERTY LABEL: MIC

- CCCCn1c(C(=O)/C=C/c2ccc(C)cc2)nc2ccccc21: 512 µg/mL
- O=C(/C=C/c1ccc(Cl)cc1Cl)c1nc2ccccc2[nH]1: 64 µg/mL
- CCCCCCCCn1c(C(=O)/C=C/c2ccc(C)cc2)nc2ccccc21: 256 µg/mL
- O=C(/C=C/c1ccc(Cl)cc1)c1nc2ccccc2[nH]1: 512 µg/mL
- CCCCCCCCn1c(-c2cc(-c3ccc(Cl)cc3Cl)nc(N)n2)nc2ccccc21: 8 µg/mL
- CCCCCCCCn1c(-c2cc(-c3ccc(Cl)cc3)nc(N)n2)nc2ccccc21: 8 µg/mL
